Test system: field violet (Viola arvensis)
Assay: Test D controlled growth environment herbicide test, pre- and postemergence
Type: in vivo
Conditions: Preemergence, 250 g ai/ha; scale 0 to 100, 0 no effect, 100 complete control
Consider the following molecules; for each one, report its Plant response rating, Field Violet.
Just the number, please.

-- ask Requested read-out: Plant response rating, Field Violet. Entry: Cc1cc(C)c2sc(C)c(-c3c(O)c(C)nn(C)c3=O)c2c1 [Compound 2]
-- reply 100

-- ask What about this molecule? Cc1ccc2ccccc2c1-c1c(OC(=O)OC(C)C)c(C)nn(C)c1=O [Compound 72]
-- reply 95

-- ask Another molecule to check: CCc1sc2ccc(C)cc2c1-c1c(O)c(C)nn(C)c1=O [Compound 47]
-- reply 100

-- ask Same question for Cc1nn(C)c(=O)c(-c2ccc(Br)c3ccccc23)c1O [Compound 75] please.
-- reply 100

-- ask Please give the result for Cc1nn(C)c(=O)c(-c2cccc3ccc(Br)cc23)c1O [Compound 126] too.
-- reply 100
